Values from patent US20240217969A1

Record form. Attribute: pIC50. Fill in for each entry.
- targetSystem: Cdc7 (Homo sapiens, UniProt O00311)
- Sequence (O00311 whole entry): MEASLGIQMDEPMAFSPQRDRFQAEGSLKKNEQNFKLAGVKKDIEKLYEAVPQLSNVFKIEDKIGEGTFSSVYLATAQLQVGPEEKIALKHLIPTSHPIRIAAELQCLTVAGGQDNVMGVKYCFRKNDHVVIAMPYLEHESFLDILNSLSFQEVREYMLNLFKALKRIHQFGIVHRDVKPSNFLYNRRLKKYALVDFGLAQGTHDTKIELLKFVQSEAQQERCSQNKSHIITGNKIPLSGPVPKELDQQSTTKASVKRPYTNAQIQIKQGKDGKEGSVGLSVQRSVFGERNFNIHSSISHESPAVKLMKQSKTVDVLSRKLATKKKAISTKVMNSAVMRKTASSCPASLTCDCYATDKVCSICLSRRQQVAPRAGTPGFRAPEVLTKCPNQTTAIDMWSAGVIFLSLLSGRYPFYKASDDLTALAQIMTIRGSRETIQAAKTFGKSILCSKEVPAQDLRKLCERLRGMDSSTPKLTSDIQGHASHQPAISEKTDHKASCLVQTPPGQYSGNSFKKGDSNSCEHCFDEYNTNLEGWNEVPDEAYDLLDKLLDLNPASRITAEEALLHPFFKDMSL
- Sequence (Q9UBU7 whole entry partner): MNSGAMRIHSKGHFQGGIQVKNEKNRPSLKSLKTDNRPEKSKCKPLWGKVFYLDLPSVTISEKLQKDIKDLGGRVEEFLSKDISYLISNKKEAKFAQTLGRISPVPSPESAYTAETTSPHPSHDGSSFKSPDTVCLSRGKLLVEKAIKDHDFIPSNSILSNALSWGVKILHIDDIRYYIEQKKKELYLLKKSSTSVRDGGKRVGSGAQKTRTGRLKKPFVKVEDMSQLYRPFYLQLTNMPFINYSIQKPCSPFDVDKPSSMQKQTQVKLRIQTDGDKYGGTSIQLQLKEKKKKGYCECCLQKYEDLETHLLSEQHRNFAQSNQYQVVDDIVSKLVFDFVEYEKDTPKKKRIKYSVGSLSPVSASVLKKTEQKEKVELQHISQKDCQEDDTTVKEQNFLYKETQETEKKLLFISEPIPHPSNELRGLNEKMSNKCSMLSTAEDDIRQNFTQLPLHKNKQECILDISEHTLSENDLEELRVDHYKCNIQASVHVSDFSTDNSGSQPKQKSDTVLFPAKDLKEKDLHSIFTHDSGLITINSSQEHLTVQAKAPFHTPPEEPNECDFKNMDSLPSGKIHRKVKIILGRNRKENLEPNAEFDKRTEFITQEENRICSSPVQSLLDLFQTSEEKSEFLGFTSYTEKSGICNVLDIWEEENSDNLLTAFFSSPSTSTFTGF
Just the number, please; pIC50 means minus log10 of the concentration in mol/L.

Consider the compound Cc1cccc(-c2[nH]c(-c3ccnc4[nH]ccc34)cc2C(N)=O)c1F and give its measured pIC50.
8.00

And what about the compound Cc1c(-c2[nH]c(-c3ccnc4[nH]ccc34)cc2C(N)=O)cccc1C(F)(F)F ?
8.22

And what about the compound Cn1c(-c2ccnc3[nH]ccc23)cc(C(N)=O)c1-c1ccc(Cl)cc1Cl ?
7.85

And what about the compound NC(=O)c1cc(-c2ccnc3[nH]ccc23)[nH]c1-c1ccc(F)c(F)c1 ?
7.82

And what about the compound Cc1cc(C(F)(F)F)ccc1-c1[nH]c(-c2ccnc3[nH]ccc23)cc1C(N)=O ?
8.15

And what about the compound Cc1ccc(-c2[nH]c(-c3ccnc4[nH]ccc34)cc2C(N)=O)c2ccccc12 ?
7.77
